Source of measurements: patent US11059808B2

# Tested on: TZM-bl cells
# assay-text: Cytotoxicity in TZM-bl cells (XTT)
# Type: cell-based
# measurement-context: XTT, 3 days
# Experimental: The cytotoxicity of test compounds in TZM-bl cells was also measured by the XTT method described previously^7. […] The soluble intracellular formazan was quantitated colorimetrically at 450 nm 4 h later. The percent of cytotoxicity and the CC50 values were calculated as above. (See Table 4)

>  <molecule>
Cc1ccc(-c2ccc(C(=O)NC(c3ncc(CO)s3)C(C)(C)N)[nH]2)cc1F (single isomer, unassigned) [Compound 126]

>  <qual>
=

>  <CC50 (µM)>
18.1

$$$$
>  <molecule>
Cc1nc(C(NC(=O)c2ccc(-c3ccc(Cl)c(F)c3)[nH]2)C(C)(C)N)sc1CO (single isomer, unassigned) [Compound 112]

>  <qual>
=

>  <CC50 (µM)>
13.9

$$$$
>  <molecule>
Cc1ccc(-c2ccc(C(=O)NC(c3nc(C)c(CO)s3)C3CCCCN3)[nH]2)cc1F (single isomer, unassigned) [Compound 23]

>  <qual>
≥

>  <CC50 (µM)>
36

$$$$
>  <molecule>
Cc1cc(C(=O)NC(CN)c2nc(C)c(CO)s2)[nH]c1-c1ccc(Cl)cc1 (single isomer, unassigned) [Compound 98]

>  <qual>
=

>  <CC50 (µM)>
22.2

$$$$

====

# assay-text: Cytotoxicity in TZM-bl cells (XTT)
# Format: cell-based
# measurement-context: human, XTT, 3 days
Listed next: entries and their corresponding CC50 at 3 days.

>  <compound>
Nc1nc(CNC(=O)c2ccc(-c3ccc(Cl)cc3)[nH]2)n[nH]1 [Compound 2]

>  <CC50 at 3 days>
> 63 µM

$$$$
>  <compound>
Cc1ccc(-c2ccc(C(=O)NC(CNC(=N)N)c3nc(C)c(CO)s3)[nH]2)cc1F (single isomer, unassigned) [Compound 49]

>  <CC50 at 3 days>
> 37 µM

$$$$
>  <compound>
Cc1ccc(-c2ccc(C(=O)NC(CN(C)C)c3nc(C)c(CO)s3)[nH]2)cc1F (single isomer, unassigned) [Compound 64]

>  <CC50 at 3 days>
~40 µM

$$$$
>  <compound>
N=C(N)NCCCC(NC(=O)c1ccc(-c2ccccc2)[nH]1)C(=O)NN1CCOCC1 (centres unmarked) [Compound 10]

>  <CC50 at 3 days>
> 43 µM

$$$$
>  <compound>
Cc1nc(C(CCN(C)C)NC(=O)c2ccc(-c3ccc(Cl)cc3)[nH]2)sc1CO (single isomer, unassigned) [Compound 76]

>  <CC50 at 3 days>
21.7 µM

$$$$
>  <compound>
Cc1nc(C(CCN)NC(=O)c2ccc(-c3ccc(Cl)cc3)[nH]2)sc1CO (single isomer, unassigned) [Compound 88]

>  <CC50 at 3 days>
41 µM

$$$$
>  <compound>
Cc1nc(C(NC(=O)c2ccc(-c3ccc(Cl)c(F)c3)[nH]2)C2CCCCN2)[nH]c1CO (single isomer, unassigned) [Compound 35]

>  <CC50 at 3 days>
25 µM

$$$$
>  <compound>
NCC(NC(=O)c1ccc(-c2cc(F)c(Cl)c(F)c2)[nH]1)c1ncc(CO)s1 (single isomer, unassigned) [Compound 119]

>  <CC50 at 3 days>
18 µM

$$$$
>  <compound>
Cc1nc(C(CNC(=N)N)NC(=O)c2ccc(-c3ccc(Cl)cc3)[nH]2)sc1CO (single isomer, unassigned) [Compound 45]

>  <CC50 at 3 days>
> 37 µM

$$$$
>  <compound>
Cc1ccc(-c2ccc(C(=O)NC(c3ncc(CO)s3)C(C)(C)N)[nH]2)cc1F (single isomer, unassigned) [Compound 125]

>  <CC50 at 3 days>
32.5 µM

$$$$
>  <compound>
Cc1nc(C(NC(=O)c2ccc(-c3ccc(Cl)c(F)c3)[nH]2)C2CCCCN2)sc1CCCO (single isomer, unassigned) [Compound 31]

>  <CC50 at 3 days>
8.2 µM

$$$$
>  <compound>
Cc1nc(C(NC(=O)c2ccc(-c3ccc(Cl)cc3)[nH]2)C2CCCCN2)sc1CCO (single isomer, unassigned) [Compound 28]

>  <CC50 at 3 days>
17.3 µM

$$$$
>  <compound>
N=C(N)NCCCC(NC(=O)c1ccc(-c2ccc(Cl)cc2)[nH]1)C(=O)NCCO (centres unmarked) [Compound 4]

>  <CC50 at 3 days>
> 44 µM

$$$$
>  <compound>
CNCCC(NC(=O)c1ccc(-c2ccc(Cl)c(F)c2)[nH]1)c1nc(C)c(CO)s1 (single isomer, unassigned) [Compound 80]

>  <CC50 at 3 days>
22.3 µM

$$$$
